# Test system: MS2 coat protein
# PROTOCOL_SUMMARY: apparent KD of MS2 coat protein; designed switch direction (-1 OFF switch, 1 ON switch): -1; higher = weaker reporter binding
# CONDITION_NOTES: input ligand: FMN 200 uM
ATTRIBUTE_MEASURED: apparent KD of MS2 coat protein (nM)
Numbers only here, please. The scale is nM.

Take a look at these entries with their results.
apparent KD of MS2 coat protein of ACGUACAAGCCGAUCCUAAACAUGAGGAUCACCCAUGUGCUCGUUUUGUAAAGUACUAUCACGAAAGUGAUAGUACA (Eterna round: R97, puzzle: Sensor, turn-off variant 1) , assay on MS2 coat protein, is 114

apparent KD of MS2 coat protein of UUAAAUCAUGUAGGAUAUGCGUAGCGAAGCUAUGCAGAAGGACAUGAGGAUCACCCAUGUGCUUGCGUCCGCGUACGGAUGCUA [Mat - Exclusion NG 1 - Mod of JL - D66] (Eterna round: R96, puzzle: Exclusion NG 1) , assay on MS2 coat protein, is 202

apparent KD of MS2 coat protein of AAAUCGGUAGAGGAUAUUGUACAGGAAACGGUGCGAGAAGGCUACACAUGAGGAUCACCCAUGUUAAAUAGCGA [EX6 #55] (Eterna round: R97, puzzle: Exclusion 6) , assay on MS2 coat protein, is 17

apparent KD of MS2 coat protein of ACAUAGGUAGGAUAUCUAAGUUGAUACAUGAGGAUCACCCAUGUGUUACUCAAGAUCUACAGAGAAGGGCCUGAGG [Eternabot (L2) Solution 93] (Eterna round: R97, puzzle: Exclusion 5) , assay on MS2 coat protein, is 19.7

apparent KD of MS2 coat protein of UAUUUGUCAGGAUAUGAGUCGUAGAACAAUAGUACUACGUCUCAGAAGGGACAUGAGGAUCACCCAUGUGCCUC [Fiskers Ex 4 Super Stable 44 mod 29] (Eterna round: R96, puzzle: Exclusion 4) , assay on MS2 coat protein, is 276

apparent KD of MS2 coat protein of GGCGAGCAAGGAUAUGCAGGGUAUCCGACUCGCAGCGGGCGACAUGAGGAUCACCCAUGUAGAAGGUGCACGCG [EX2 A.6] (Eterna round: R97, puzzle: Exclusion 2) , assay on MS2 coat protein, is 23.9

apparent KD of MS2 coat protein of CUCAUGUGAGGAUAUGAGUUAGGGCGAGAGCCCUAUGAAAAUUAGAAGGCACAUGAGGAUCACCCAUGUGAGAA [Rerige] (Eterna round: R97, puzzle: Exclusion 4) , assay on MS2 coat protein, is 211

apparent KD of MS2 coat protein of UUUGUAUAUGAAGGAUAUACUUAACAUGAGGAUCACCCAUGUGGUGUUGUGAGUGAGUGAGUUUAGUAGAAGGUCAAUUCUUUU [JMF's solution 92] (Eterna round: R96, puzzle: Exclusion NG 2) , assay on MS2 coat protein, is 651

apparent KD of MS2 coat protein of UUGCCUAGUGUUAGGAUAUGCGACGGGUGACCGUUGCAGAAGGAACAUGAGGAUCACCCAUGUUUAAUAAAAUC [JL-BMX4-4.44 ViennaUCT mod] (Eterna round: R97, puzzle: Brourd's mod of Exclusion 4) , assay on MS2 coat protein, is 35.9

apparent KD of MS2 coat protein of UCUUCACAUGAGGAUCACCCAUGUCAGGAUAUAAGGUCUUGUCUACGUUGAAGGGACUUUAGAAGGGACACUUG [EX1 B.6] (Eterna round: R97, puzzle: Exclusion 1) , assay on MS2 coat protein, is 107

Continuing:
apparent KD of MS2 coat protein of GUCCGGCAUGUAGGAUAUGGAUCCGAUUAGGAUCCAGAAGGACAUGAGGAUCACCCAUGUACAUGUAAACAGUCAUCACCGGAC [Fiskers ExNg1 - 13] (Eterna round: R96, puzzle: Exclusion NG 1) , assay on MS2 coat protein, is 44.6

apparent KD of MS2 coat protein of AAGGGUGCCCUUAGAAAGACAUGAGGAUCACCCAUGUAGACUGAGGAUAUCCACUCCUAAGGACCGGAGAAGGCAGUGUAAUGC [Qubion] (Eterna round: R96, puzzle: Exclusion NG 3) , assay on MS2 coat protein, is 16.9

###

# Test system: MS2 coat protein
# PROTOCOL_SUMMARY: apparent KD of MS2 coat protein; designed switch direction (-1 OFF switch, 1 ON switch): 1; higher = weaker reporter binding
# CONDITION_NOTES: input ligand: FMN 200 uM
Label rule, in plain words: apparent KD of MS2 coat protein of 100 nM and up is 1, under 100 nM is -1.

Field: example entries. Status: answers known.
[Q] Determine whether measured apparent KD of MS2 coat protein meets or exceeds 100 nM for UUUAUUAAUAUAGGAUAUGUAAAACAUGAGGAUCACCCAUGUGAUAUCGUGAGUAAGGAGAGAGAACAGAAGGAUAAUUUUUUU [JMF's solution 2] (Eterna round: R96, puzzle: Same State NG 2)
[A] -1

[Q] Determine whether measured apparent KD of MS2 coat protein meets or exceeds 100 nM for GGUGCGAAUAAAGCCUACAUGAGGAUCACCCAUGUAUGUAGGCAGGAUAUCGUUUGCUUUGCAAACGAGAAGGGCUGUCGCACC [JL SSNG3 1.16] (Eterna round: R96, puzzle: Same State NG 3)
[A] -1

[Q] Determine whether measured apparent KD of MS2 coat protein meets or exceeds 100 nM for AUUAGUGGUGGAGGAUAUGGGAAAGGAAGUGUACUAGAAGGCCACCGCCCUCUAGCACAUGAGGAUCACCCAUGUAUAGAGCCC [PowerStrip SSNG 1.14] (Eterna round: R96, puzzle: Same State NG 1)
[A] 1

[Q] Determine whether measured apparent KD of MS2 coat protein meets or exceeds 100 nM for AGAGGAGGAGCAGGAUAUUCGAAGAAGGACGUGGAAGAAGGGUUCAUGCGAUGACAUGAGGAUCACCCAUGUACCGCGCGUUGA [AK SSNG1-V2-14] (Eterna round: R96, puzzle: Same State NG 1)
[A] 1

Continuing:
[Q] Determine whether measured apparent KD of MS2 coat protein meets or exceeds 100 nM for GUUACAUGAGGAUCACCCAUGUAUGUGUGGGAGUAAGUGUCUUAGGAUAUCUAGUAUUUUAUUUAAGAGAAGGAAGAUUGUUGU [JMF's solution 59] (Eterna round: R96, puzzle: Same State NG 3)
[A] 1

###

# System: K4 kissing-loop RNA reporter;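 also: bound reporter read as fluorescence of individual clusters on recovered sequencing chips by microscopy, with normalized cluster intensities fitted with a binding model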
# PROTOCOL_SUMMARY: apparent KD of K4 kissing-loop reporter; higher = weaker reporter binding
# CONDITION_NOTES: Eterna round: R107; input ligand: theophylline 20 uM
Label rule, in plain words: apparent KD of K4 kissing-loop reporter of 300 nM and up is Y, under 300 nM is N.

[Q] Determine whether measured apparent KD of K4 kissing-loop reporter meets or exceeds 300 nM for GUUUGGCGGGCGGCCGCCACUCGGACGAGUCGCAGUGAUGUUGUGGUUUGCCAGUCGUCUUCAUCGAGGACCGGGUUUGUCGGGC [Exclusion Tryptophan B GF 19]
[A] Y

[Q] Determine whether measured apparent KD of K4 kissing-loop reporter meets or exceeds 300 nM for GGGCCUGGGCCCGGAAGGGCCUGGGCCCGUUAGGAUAUGACGUGAUUCAGAAGGGAUGGGUGGAGUGAUGUUCCACCCGAGAGGG [#2 Same State - FMN A Attempt #25 (HarryS)]
[A] N

[Q] Determine whether measured apparent KD of K4 kissing-loop reporter meets or exceeds 300 nM for AAGUGAUGUUGUAGUGAUGUUGUGAUGUUGCAGGAUAUAUAGUGAUGUAGAAGGGUAUGUACAGUUUUUUUUUUUGAGUGUUGAU [sscsmullin]
[A] N

[Q] Determine whether measured apparent KD of K4 kissing-loop reporter meets or exceeds 300 nM for GGAGAGCGGAACGAUACCAGCUGCGGCACGCACCGGAAGUUAAGCCAGUGAUGUUGGCGGAGCCCUUGGCAGCGUGCGCGCGUCC [Abeusma]
[A] N

Let us examine a further case.
[Q] Determine whether measured apparent KD of K4 kissing-loop reporter meets or exceeds 300 nM for UGUACCGAGUCAGGAUAUGGCGUCGAAAGACGAAAACCAGUGAUGUUGGAAAUCUGCGAAAGCAGUCCAGAAGGGACUUGGUACU [FmnBS 25 #SwitchBubble #StaticStem #DoubleMagnetSystem]
[A] N

###

# Test system: MS2 coat protein
# PROTOCOL_SUMMARY: apparent KD of MS2 coat protein; designed switch direction (-1 OFF switch, 1 ON switch): 1; higher = weaker reporter binding
# CONDITION_NOTES: input ligand: none
ATTRIBUTE_MEASURED: apparent KD of MS2 coat protein (nM)
Numbers only here, please. The scale is nM.

Take a look at these entries with their results.
The sequence listed as UCGAGCGUACUUGCAGACAUGAGGAUCACCCAUGUAAAUGGGAAGGAUAUGGUACCGUUUCGGUACCAGAAGGUCCUAAGUGUU [salish99_SSNG3_r04_303] (Eterna round: R96, puzzle: Same State NG 3) has a reported apparent KD of MS2 coat protein of 493

The sequence listed as ACAUGAGACCAAGGAUAUUUUGUACCUACAUGUGACAUGAGGAUCACCCAUGUGGUAAGUAUGAGAGAGAAGGUGGAGAUAUGU [Equivalence 23 - Jieux - Same State NG 2] (Eterna round: R96, puzzle: Same State NG 2) has a reported apparent KD of MS2 coat protein of 36.5

The sequence listed as GGAGGAUUCGCAGGAUAUUCCUGAACACUGUAGGAAGAAGGGUGACGUAUCAGCACCAAGUGACAUGAGGAUCACCCAUGUUAA [Eternabot solution 24] (Eterna round: R96, puzzle: Same State NG 1) has a reported apparent KD of MS2 coat protein of 114

The sequence listed as AUGAAGAAUUAAGGAUAUUGAUUACAUAUGUUUAACAUGAGGAUCACCCAUGUGGGUUGCGGUAUCGAGAAGGUAAAUUACUAG [JL SSNG2 1.48] (Eterna round: R96, puzzle: Same State NG 2) has a reported apparent KD of MS2 coat protein of 128

The sequence listed as ACUAGAAGCGGGCAAUAACACAUGAGGAUCACCCAUGUGACACAGGAUAUAACCAGAUCAGAAAGUUAGAAGGGUGAGCCCGCA [Usatbere] (Eterna round: R96, puzzle: Same State NG 3) has a reported apparent KD of MS2 coat protein of 27.4

Continuing:
The sequence listed as UGGUACAUGGGAGGAUAUGGGCAUGAGACAUGAGGAUCACCCAUGUAUUAAAAGCCGAGAGGCAUCUAGAAGGCCCAUGUACCU [JL SSNG1 3.89] (Eterna round: R96, puzzle: Same State NG 2) has a reported apparent KD of MS2 coat protein of 158

The sequence listed as AUUAAUAAUCUAGGAUAUCACGUCGAUUAGACGUGAGAAGGAGAUCAUAACAUGAGGAUCACCCAUGUAUUACAUGAAGUUAAU [SSNG1/7-B2] (Eterna round: R96, puzzle: Same State NG 1) has a reported apparent KD of MS2 coat protein of 38.1

The sequence listed as UUUAGAUCGCGAGGAUAUCGCGAGGAUCACCCGUGAGAAGGCGCAGAGCCGAGGAUCACCCGGCUGAUCCUGAGAAGGAGGUCU (Eterna round: R96, puzzle: Same State NG 1) has a reported apparent KD of MS2 coat protein of 129

The sequence listed as AAAAAACAUGAGGAUCACCCAUGUGAAAAUAUGGGAGGAUAUACAAACACGAAAGUGAAAGUAGAAGGCCUAAAAA [SS! MT 16] (Eterna round: R96, puzzle: Same State 1) has a reported apparent KD of MS2 coat protein of 127
